Target: α1-adrenergic receptors
Assay: 3H-Prazosin binding
Conditions: rat brain membranes, 0.2 nM 3H-Prazosine, 30 minutes at room temperature, pH 7.4; read-out: Inhibition of [3H]-Prazosin binding IC50
Experimental: ^b Inhibition of binding indicates affinity for α1 Male Fullinsdorf albino rats weighing between 150-200 g were used. […] 3H-Prazosin binding experiments were performed using a Tris-HCl 50 mM, pH 7.4 buffer. For displacement experiments 0.2 nM of 3H-Prazosine were used and non specific binding was measured using 100 mM of Chlorpromazine. […] The effects of compounds were measured using a minimum of 8 concentrations and repeated at least once. […]
Examples of compounds with documented IC50 follow.
Metric: IC50 (µM)

INSERT INTO assay_data (compound, assayed_system, observed_value) VALUES
  ('O=S(=O)(CCN1CC[C@H](Cc2ccccc2)[C@H](O)C1)c1ccc(O)cc1', 'α1-adrenergic receptors', 55),
  ('O=S(=O)(CCN1CCC(Cc2ccccc2)CC1)c1ccc(O)cc1', 'α1-adrenergic receptors', 42),
  ('Cc1ccc(CC2(O)CCN(CCOc3ccc(O)cc3)CC2)cc1 [Compound 9, reference compound]', 'α1-adrenergic receptors', 3.5),
  ('Cc1ccc(C[C@H]2CCN(CCS(=O)(=O)c3ccc(O)cc3)C[C@H]2O)cc1 (single isomer, unassigned)', 'α1-adrenergic receptors', 88),
  ('Cc1ccc(OC2CCN(CCS(=O)(=O)c3ccc(O)cc3)CC2)cc1', 'α1-adrenergic receptors', 16);

Where do these numbers come from? They come from patent US6310213A.
